# Test Details: Volume of distribution in rat at 1 mg/kg, iv
# Format: ADME, organism-based
# Parameters: dose 1 mg/kg, route intravenous
# Condition Notes: in vivo
Parameter: Vd (L/kg)
Response body: numeric value in L/kg, unit text excluded.

q: Name the recorded Vd of the compound listed here: COc1ccc2ccc(C(=O)N3CCC4(CC3)Cc3cn(C(C)(C)C)nc3C(=O)N4)cc2n1
a: 1.7

###

# Test Details: Thermodynamic solubility of the compound at pH 1.2
# Type: physicochemical
# Condition Notes: buffer, read-out: Therm_solubility
Parameter: solubility thermodynamic (µg/mL)
Response body: numeric value in µg/mL, unit text excluded.

q: Name the recorded solubility thermodynamic of the compound listed here: CNc1ccc2ccc(C(=O)N3CCC4(CC3)Cc3cn(C(C)(C)C)nc3C(=O)N4)cc2n1
a: 4.8

q: Name the recorded solubility thermodynamic of the compound listed here: COc1ccc2ccc(C(=O)N3CCC4(CC3)Cc3cn(C(C)(C)C)nc3C(=O)N4)cc2n1
a: 0.49

###

# maps each entry to its clearance
# Test Details: Systemic clearance in rat at 1 mg/kg, iv
# Assay type: ADME, organism-based
# Set-up: dose 1 mg/kg, route intravenous
# Condition Notes: in vivo
Response body: numeric value in mL/min/kg, unit text excluded.

COc1ccc2ccc(C(=O)N3CCC4(CC3)Cc3cn(C(C)(C)C)nc3C(=O)N4)cc2n1    29

API: the following record is the query input.
q: Name the recorded clearance of the compound listed here: COc1nccc2ccc(C(=O)N3CCC4(CC3)Cc3cn(C(C)(C)C)nc3C(=O)N4)cc12
a: 41

###

# maps each entry to its microsomal CLint
# Test Details: Hepatic clearance in human liver microsomes
# Format: ADME, Microsome
# Condition Notes: read-out: CLH

CC(C)(C)n1cc2c(n1)C(=O)NC1(CCN(C(=O)c3cnc4c(Cl)c[nH]c4c3)CC1)C2    < 8 µL/min/mg
CC(C)(C)n1cc2c(n1)C(=O)NC1(CCN(C(=O)c3ccc4[nH]cc(Cl)c4c3)CC1)C2    17 µL/min/mg
Cc1n[nH]c2c(C)cc(C(=O)N3CCC4(CC3)Cc3cn(C(C)C)nc3C(=O)N4)cc12    < 8 µL/min/mg

API: the following record is the query input.
q: Name the recorded microsomal CLint of the compound listed here: Cc1n[nH]c2c(C)cc(C(=O)N3CCC4(CC3)Cc3cnn(C(C)C)c3C(=O)N4)cc12
a: < 8 µL/min/mg

###

# Test Details: Cmax in rat at 5 mg/kg, po
# Format: ADME, organism-based
# Parameters: dose 5 mg/kg, route oral
# Condition Notes: in vivo
# maps each entry to its Cmax
Response body: numeric value in ng/mL, unit text excluded.

COc1ccc2ccc(C(=O)N3CCC4(CC3)Cc3cn(C(C)(C)C)nc3C(=O)N4)cc2n1    403

q: Name the recorded Cmax of the compound listed here: COc1nccc2ccc(C(=O)N3CCC4(CC3)Cc3cn(C(C)(C)C)nc3C(=O)N4)cc12
a: 186

###

# maps each entry to its microsomal CLint
# Test Details: Hepatic clearance in human liver microsomes
# Type: ADME, Microsome
# Condition Notes: read-out: CLH
Response body: numeric value in µL/min/mg, unit text excluded.

CCCNc1ccc2ccc(C(=O)N3CCC4(CC3)Cc3cn(C(C)(C)C)nc3C(=O)N4)cc2n1    29
Cc1n[nH]c2c(C)cc(C(=O)N3CCC4(CC3)Cc3cn(C(C)(C)C)nc3C(=O)N4C)cc12    14
Cc1ccc2c(c1)C(=O)CC1(CCN(C(=O)c3ccc4[nH]ncc4c3)CC1)O2    19
CNc1ccc2ccc(C(=O)N3CCC4(CC3)Cc3cn(C(C)(C)C)nc3C(=O)N4)cc2n1    9
CN(C)c1ccc2ccc(C(=O)N3CCC4(CC3)Cc3cn(C(C)(C)C)nc3C(=O)N4)cc2n1    19

q: Name the recorded microsomal CLint of the compound listed here: COc1nccc2ccc(C(=O)N3CCC4(CC3)Cc3cn(C(C)(C)C)nc3C(=O)N4)cc12
a: 12

###

# Test Details: Lipophilicity, log D of the compound
# Assay type: physicochemical
# Condition Notes: octanol/water
Parameter: logD
Please reply with the number alone, leaving off any unit.

Cc1n[nH]c2c(C)cc(C(=O)N3CCC4(CC3)Cc3cnn(C(C)C)c3C(=O)N4)cc12    1.7

q: Name the recorded logD of the molecule listed here: Cc1ccc2c(c1)C(=O)CC1(CCN(C(=O)c3ccc4[nH]ncc4c3)CC1)O2
a: 2.5

q: Name the recorded logD of the molecule listed here: CCC(C)(C)n1cc2c(n1)C(=O)NC1(CCN(C(=O)c3cc(C)c4[nH]nc(C)c4c3)CC1)C2
a: 1.7

###

# Test Details: Hepatic clearance in human liver microsomes
# Format: ADME, Microsome
# Condition Notes: read-out: CLH
Parameter: microsomal CLint

Completed entries (count: 2):
COc1ccc2ccc(C(=O)N3CCC4(CC3)Cc3cn(C(C)(C)C)nc3C(=O)N4)cc2n1    < 8 µL/min/mg
CC(C)(C)n1cc2c(n1)C(=O)NC1(CCN(C(=O)c3ccc4[nH]ncc4c3)CC1)C2    < 8 µL/min/mg

API: the following record is the query input.
q: Name the recorded microsomal CLint of the compound listed here: CC(C)(C)n1cc2c(n1)C(=O)CC1(CCN(C(=O)c3ccc4[nH]ncc4c3)CC1)O2
a: < 9 µL/min/mg
